# experimentalTarget: CYP3A4 (Homo sapiens)
# experimentNotes: Determination of compound Kiapp against recombinant CYP3A4 enzyme (BFC fluorescent substrate)
# Format: biochemical
# assayConditions: Baculo. enzyme preparation, read-out: Kiapp (BFC, Baculo.)
pKi: −log10 of the molar value.
observedProperty: pKi

Answered examples (5):
CCOc1ccncc1NS(=O)(=O)c1ccccc1C(=O)NC(C)(C)CC ... 7.08
CN(Cc1ccccc1F)C(=O)c1ccccc1S(=O)(=O)Nc1cccnc1 ... 6.91
COc1cncc(NS(=O)(=O)c2ccc(Cl)cc2C(=O)N2CCCC(C)C2)c1 (centres unmarked) ... 6.29
Cc1cncc(NS(=O)(=O)c2ccccc2C(=O)N2CCCC2)c1 ... 6.71
COc1cncc(NS(=O)(=O)c2ccccc2C(=O)N2CCCC2)c1 ... 6.46

P: CCOc1ccncc1NS(=O)(=O)c1ccccc1C(=O)NCCOC
Q: CCOc1cncc(NS(=O)(=O)c2ccccc2C(=O)NC2CCCCC2)c1
R: CCOc1cncc(NS(=O)(=O)c2ccccc2C(=O)N(C)Cc2ccc(F)c(F)c2)c1
S: COc1ccncc1NS(=O)(=O)c1ccccc1C(=O)NCc1ccc(F)c(C(F)(F)F)c1
T: CCOc1ccncc1NS(=O)(=O)c1ccccc1C(=O)N(C)Cc1cccc(F)c1
Ask: Hey, quick one: sort these by pKi, low to high? Answer format: the labels, in the requested order.
Reply: P, T, Q, S, R
(P: 6.02, T: 6.89, Q: 7.10, S: 7.64, R: 8.23)

====

# experimentalTarget: CYP3A4 (Homo sapiens, UniProt P08684)
# Sequence (P08684 whole entry): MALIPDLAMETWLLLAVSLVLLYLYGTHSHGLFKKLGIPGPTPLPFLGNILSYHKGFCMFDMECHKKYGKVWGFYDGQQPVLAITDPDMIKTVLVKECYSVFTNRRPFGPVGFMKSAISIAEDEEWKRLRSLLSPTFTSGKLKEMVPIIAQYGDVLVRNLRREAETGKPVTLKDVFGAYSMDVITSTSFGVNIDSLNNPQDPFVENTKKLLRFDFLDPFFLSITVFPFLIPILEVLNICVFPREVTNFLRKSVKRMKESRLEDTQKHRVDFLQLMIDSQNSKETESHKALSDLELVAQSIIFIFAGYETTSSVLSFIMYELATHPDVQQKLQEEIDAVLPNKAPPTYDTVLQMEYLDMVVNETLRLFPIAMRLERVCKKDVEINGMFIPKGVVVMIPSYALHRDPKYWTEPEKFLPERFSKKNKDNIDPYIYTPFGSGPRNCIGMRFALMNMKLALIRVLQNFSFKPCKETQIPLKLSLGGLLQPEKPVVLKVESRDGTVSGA
# experimentNotes: Determination of IC50 against CYP3A4 by measurement of inhibition of midazolam metabolism (human liver microsomes, 1-hydroxymidazolam by LC-MS/MS)
# Format: biochemical
# Design: 0.1 mg/mL human liver microsomes
# assayConditions: 2 μM midazolam, 0.1 mg/mL human liver microsomes
pIC50: −log10 of the molar value.
observedProperty: pIC50

Cc1cncc(NS(=O)(=O)c2ccccc2C(=O)NCC(C)(C)C)c1 ... 7.22

P: COc1cncc(NS(=O)(=O)c2ccccc2C(=O)NCCC2CCCC2)c1
Q: O=C(NCCOc1ccccc1)c1ccccc1S(=O)(=O)Nc1cccnc1
R: Cc1cncc(NS(=O)(=O)c2ccccc2C(=O)N(C)Cc2ccc(C(F)(F)F)cc2)c1
Ask: // smallest pIC50 at index 0, largest at the end Give the order by naming the labels one after another as requested.
Reply: Q, R, P
(Q: 7.31, R: 7.74, P: 8.40)

====

# experimentalTarget: CYP3A4 (Homo sapiens)
# experimentNotes: Determination of compound Kiapp against recombinant CYP3A4 enzyme (BFC fluorescent substrate)
# Format: biochemical
# assayConditions: Super. enzyme preparation, read-out: Kiapp (BFC, Super.)
observedProperty: Ki (nM)

Example entries and their recorded answers appear below.
Cc1cncc(NS(=O)(=O)c2ccccc2C(=O)NC(C)C2CC2)c1 (stereo not shown) ... 42.2
CCOc1cncc(NS(=O)(=O)c2ccccc2C(=O)NC(C)(C)CC)c1 ... 19.5
Cc1cncc(NS(=O)(=O)c2ccccc2C(=O)NCC2CCCC2)c1 ... 9.1
CCN(Cc1ccccc1)C(=O)c1ccccc1S(=O)(=O)Nc1cccnc1 ... 13.8
CCC(C)CNC(=O)c1ccccc1S(=O)(=O)Nc1cncc(OC)c1 (stereo not shown) ... 16.1

a: CN(Cc1cccc(F)c1)C(=O)c1ccccc1S(=O)(=O)Nc1cccnc1
b: COCCNC(=O)c1ccccc1S(=O)(=O)Nc1cncc(OC)c1
c: Cc1ccncc1NS(=O)(=O)c1ccccc1C(=O)NCCC(C)C
d: Cc1cncc(NS(=O)(=O)c2ccccc2C(=O)NCc2ccc(F)c(Cl)c2)c1
e: COc1cncc(NS(=O)(=O)c2ccccc2C(=O)NCc2cccc(Cl)c2F)c1
Ask: Which order do these items take when sorted by rising Ki? List them. Would you mind listing the labels in the order asked for?
Reply: d, e, a, c, b
